system: MCF7; experiment: Growth inhibition of human MCF7 cells at 10 uM after 48 hrs by sulforhodamine B assay; format: functional; conditions: MCF7, 48 h, read-out: GI
readout kind: inhibition of growth at 10 µM

In the examples that follow, each entry is paired with its recorded inhibition of growth at 10 µM.
# smiles, result
rows = [
    ("O=C(c1cnc2ccccn12)N1c2ccccc2Sc2ccccc21", "4.6%"),
    ("O=C(c1cc2cc(F)ccc2[nH]1)N1c2ccccc2Sc2ccccc21", "3.4%"),
    ("CC(=O)c1cn(C(=O)N2c3ccccc3Sc3ccccc32)c2ccccc12", "0%"),
]

Please report the measured inhibition of growth at 10 µM for `CCOC(=O)c1cc(C(=O)N2c3ccccc3Sc3ccccc32)n2ccc(N(C)C)cc12`
18.5%
